Data origin: the supplement of paper PMC9112550

# System: Escherichia coli TOP10
# EXPERIMENT DESCRIPTION: shrunken log2 fold change of peptide-encoding DNA abundance (4.5 h post-induction vs induction); higher = less antimicrobial activity (less host growth inhibition)
# CONDITION PARAMETERS: time post-induction: 4.5 h; library: site-saturation at positions 5, 18, 19, 20
shrunken log2 fold change below -0.05 gives not fulfilled; shrunken log2 fold change at or above it gives fulfilled.

Completed entries (count: 5):
- RRIRLRPPRLPRPRPRPCVGPRP: fulfilled
- RRIRHRPPRLPRPRPRPDMTPRP: not fulfilled
- RRIRDRPPRLPRPRPRPHSHPRP: not fulfilled
- RRIRYRPPRLPRPRPRPTESPRP: fulfilled
- RRIRYRPPRLPRPRPRPWTSPRP: fulfilled

Q: Has RRIRNRPPRLPRPRPRPTAKPRP a recorded shrunken log2 fold change greater than or equal to -0.05?
Ans: not fulfilled

Q: For this sequence, is measured shrunken log2 fold change -0.05 or higher? RRIRTRPPRLPRPRPRPNIMPRP
Ans: not fulfilled

* * *

# Tested on: Escherichia coli TOP10
# EXPERIMENT DESCRIPTION: shrunken log2 fold change of peptide-encoding DNA abundance (4.5 h post-induction vs induction); higher = less antimicrobial activity (less host growth inhibition)
# CONDITION PARAMETERS: time post-induction: 4.5 h; library: site-saturation at positions 5, 18, 19, 20
# class assignment by measured shrunken log2 fold change: c1 (below 0.05), c2 (0.05 to below 0.3), c3 (0.3 or more)

* RRIRTRPPRLPRPRPRPVSAPRP | c2
* RRIRKRPPRLPRPRPRPPIHPRP | c3
* RRIRRRPPRLPRPRPRPQTQPRP | c3
* RRIRVRPPRLPRPRPRPPTGPRP | c2
* RRIRMRPPRLPRPRPRPSNPPRP | c2

Q: Assign a bin to RRIRPRPPRLPRPRPRPLGNPRP
Ans: c1

Q: Quick check: band for RRIRSRPPRLPRPRPRPQLGPRP
Ans: c2

* * *

# System: Escherichia coli TOP10;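 also: peptides expressed intracellularly from a pBAD plasmid library in pooled LB shake-flask culture, induced with 0.3% L-arabinose, DNA abundance read by NGS, three biological replicates, DESeq2 with apeglm shrinkage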
# EXPERIMENT DESCRIPTION: shrunken log2 fold change of peptide-encoding DNA abundance (4.5 h post-induction vs induction); higher = less antimicrobial activity (less host growth inhibition)
# CONDITION PARAMETERS: time post-induction: 4.5 h; library: site-saturation at positions 5, 18, 19, 20
shrunken log2 fold change of -0.07 or higher: criterion met. Under -0.07: criterion not met.

• RRIRARPPRLPRPRPRPSIIPRP = criterion not met
• RRIRPRPPRLPRPRPRPYWRPRP = criterion not met
• RRIRGRPPRLPRPRPRPYLIPRP = criterion not met
• RRIRSRPPRLPRPRPRPWQNPRP = criterion not met
• RRIRFRPPRLPRPRPRPEHEPRP = criterion met
• RRIRSRPPRLPRPRPRPDNPPRP = criterion not met
• RRIRQRPPRLPRPRPRPPNDPRP = criterion met
• RRIRQRPPRLPRPRPRPTVHPRP = criterion not met
• RRIRKRPPRLPRPRPRPEAQPRP = criterion met
• RRIRFRPPRLPRPRPRPHWLPRP = criterion met

Q: Item RRIRCRPPRLPRPRPRPMTEPRP with shrunken log2 fold change of -0.07 or above?
Ans: criterion not met

Q: Threshold query (shrunken log2 fold change >= -0.07) on RRIRYRPPRLPRPRPRPCSTPRP
Ans: criterion not met

Q: Say whether RRIRWRPPRLPRPRPRPDSAPRP shows shrunken log2 fold change of -0.07 or more.
Ans: criterion met

Q: Evaluate RRIRKRPPRLPRPRPRPQKHPRP : shrunken log2 fold change at minimum -0.07?
Ans: criterion met

Q: Hi team, for RRIRQRPPRLPRPRPRPSRGPRP , is the recorded shrunken log2 fold change at or above -0.07?
Ans: criterion met
